Each item that follows carries a reported protein stability index.
B1: AUP1 (parent)
chain: FCASTRLPPTPLLLFPEEEATNGR

Variants of: B1
Experiment: protein stability index of a GFP-peptide fusion (GPS, HEK-293T) (PSI 1-6); higher = more stable;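 further: lentivirally expressed fusions sorted by FACS into six bins by GFP to DsRed ratio, PSI derived from sequencing read proportions per bin multiplied by bin number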
Conditions: c terminus: a fixed tail appended
Give your answer as a number; write no unit.

FCASTRLCPTPLLLFPEEEATNGR [P8C]    2.08
FCASTRLPPTPLLLYPEEEATNGR [F15Y]    2.61
FCACTRLPPTPLLLFPEEEATNGR [S4C]    2.54
FCASTRLPPTPLLLFPQEEATNGR [E17Q]    2.28

Prompt line: Complete the entry with protein stability index for FCASTRLDPTPLLLFPEEEATNGR [P8D]
Response line: 2.92

Prompt line: Complete the entry with protein stability index for FCASTRLPPTPLLLFPEEEVTNGR [A20V]
Response line: 2.7

Prompt line: Complete the entry with protein stability index for FCASTRLPPTPLLLFPKEEATNGR [E17K]
Response line: 2.25

Prompt line: Complete the entry with protein stability index for FCASTRLPPTPLLLFPEEEQTNGR [A20Q]
Response line: 2.96

Prompt line: Complete the entry with protein stability index for FCASTDLPPTPLLLFPEEEATNGR [R6D]
Response line: 3.9

Prompt line: Complete the entry with protein stability index for FCASNRLPPTPLLLFPEEEATNGR [T5N]
Response line: 3.05

Prompt line: Complete the entry with protein stability index for FCASTQLPPTPLLLFPEEEATNGR [R6Q]
Response line: 3.49
